B1: glmS ribozyme (parent)
chain: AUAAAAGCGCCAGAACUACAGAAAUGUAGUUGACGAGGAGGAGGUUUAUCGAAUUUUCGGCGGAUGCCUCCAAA

variants of: B1; experiment: self-cleavage kobs at 2500 uM GlcN6P; higher = faster cleavage; RNA array; details: with glucosamine-6-phosphate
This sample holds only a part of the variants without activity.
Endpoint Label: self-cleavage kobs at 2500 uM GlcN6P (s⁻¹)
Just the number in s⁻¹, nothing appended.

Worked cases, answers included:
> print(dat)
   residue.change                        endpoint.label  recorded.value
1       A39C U69C  self-cleavage kobs at 2500 uM GlcN6P        0.000211
2       G40U U45A  self-cleavage kobs at 2500 uM GlcN6P         0.00235
3       G40U U54C  self-cleavage kobs at 2500 uM GlcN6P         0.00431

self-cleavage kobs at 2500 uM GlcN6P lookup needed for G32U , thanks.
0.000508
